target_or_system: T1, GIP receptor (UniProt P48546 22-466)
T1 sequence (looked up): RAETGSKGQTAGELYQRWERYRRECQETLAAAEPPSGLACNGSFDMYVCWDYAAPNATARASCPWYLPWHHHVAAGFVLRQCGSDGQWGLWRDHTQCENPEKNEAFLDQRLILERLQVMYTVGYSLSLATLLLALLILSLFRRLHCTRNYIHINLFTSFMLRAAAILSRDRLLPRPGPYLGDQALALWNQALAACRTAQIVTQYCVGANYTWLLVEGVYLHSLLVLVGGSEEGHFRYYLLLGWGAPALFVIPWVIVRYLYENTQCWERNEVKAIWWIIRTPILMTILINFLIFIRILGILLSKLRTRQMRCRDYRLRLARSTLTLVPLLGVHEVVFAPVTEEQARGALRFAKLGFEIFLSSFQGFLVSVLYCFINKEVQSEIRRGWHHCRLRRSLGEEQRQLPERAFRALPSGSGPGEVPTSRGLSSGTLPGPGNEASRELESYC
measurement_description: cell-based or functional assay
Non-standard residues stand in square brackets, D forms with d. No end group written: not given here. Aib = CC(C)(N)C(=O)O
measured_property: EC50 (nM)

- binder: "H[Aib]QGTFTSDYSKYLDEQAAKEFIC(PEG 40 kDa)WLMNGGPSSGAPPPSK-NH2 [mt-350]"
  number: 77.7

Measured values drawn from patent US20120172295A1 for this set.
